- Method notes: PET hydrolysis product formed (TPA+MHET+BHET, UV-Vis) per mg enzyme (mmol/mg enzyme); higher = more PET depolymerisation activity; extreme values may be limits of the assay
- Condition parameters: PET substrate: cryPow; 60 °C; pH 4.5; 24 h
Observation type: PET hydrolysis product formed
Number only, please.

- Monomer sequence: "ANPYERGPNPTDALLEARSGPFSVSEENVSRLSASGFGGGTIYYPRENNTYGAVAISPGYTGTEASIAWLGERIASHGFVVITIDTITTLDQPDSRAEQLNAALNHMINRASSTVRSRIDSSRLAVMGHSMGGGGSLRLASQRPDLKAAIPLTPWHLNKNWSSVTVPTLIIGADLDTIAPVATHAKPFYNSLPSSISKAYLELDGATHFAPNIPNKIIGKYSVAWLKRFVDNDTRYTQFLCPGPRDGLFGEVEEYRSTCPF [TfCut2]"
  PET hydrolysis product formed: 0

Kindly review the next sequence as well.
PET hydrolysis product formed for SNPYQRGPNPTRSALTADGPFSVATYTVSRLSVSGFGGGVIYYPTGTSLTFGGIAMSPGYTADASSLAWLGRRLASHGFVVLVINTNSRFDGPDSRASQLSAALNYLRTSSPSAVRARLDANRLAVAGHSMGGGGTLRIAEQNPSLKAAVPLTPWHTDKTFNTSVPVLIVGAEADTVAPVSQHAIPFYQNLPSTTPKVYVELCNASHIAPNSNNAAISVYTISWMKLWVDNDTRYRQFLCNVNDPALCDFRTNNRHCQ [LCC-ICCG] ? 0

----------
- Method notes: PET hydrolysis product formed (TPA+MHET+BHET, UV-Vis) per mg enzyme (mmol/mg enzyme); higher = more PET depolymerisation activity; extreme values may be limits of the assay
- Condition parameters: PET substrate: aFilm; 70 °C; pH 5.5; 24 h
Listing of recorded PET hydrolysis product formed by entry.
Number only, please.

- Monomer sequence: "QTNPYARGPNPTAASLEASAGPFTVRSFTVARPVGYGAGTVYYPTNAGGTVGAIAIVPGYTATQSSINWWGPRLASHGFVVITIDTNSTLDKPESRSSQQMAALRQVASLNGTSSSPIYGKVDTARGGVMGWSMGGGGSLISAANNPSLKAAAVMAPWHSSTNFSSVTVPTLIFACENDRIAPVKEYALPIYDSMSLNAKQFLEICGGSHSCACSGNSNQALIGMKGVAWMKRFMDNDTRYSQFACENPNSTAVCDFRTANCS [HotPETase]"
  Test value: 0
- Monomer sequence: "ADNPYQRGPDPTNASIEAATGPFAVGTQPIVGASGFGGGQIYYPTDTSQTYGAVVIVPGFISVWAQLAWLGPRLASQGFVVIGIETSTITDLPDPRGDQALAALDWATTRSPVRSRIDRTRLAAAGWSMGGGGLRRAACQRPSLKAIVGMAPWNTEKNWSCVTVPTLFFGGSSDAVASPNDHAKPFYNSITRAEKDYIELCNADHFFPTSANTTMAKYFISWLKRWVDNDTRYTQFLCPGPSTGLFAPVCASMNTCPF [CaPETaseM9]"
  Test value: 0
- Monomer sequence: "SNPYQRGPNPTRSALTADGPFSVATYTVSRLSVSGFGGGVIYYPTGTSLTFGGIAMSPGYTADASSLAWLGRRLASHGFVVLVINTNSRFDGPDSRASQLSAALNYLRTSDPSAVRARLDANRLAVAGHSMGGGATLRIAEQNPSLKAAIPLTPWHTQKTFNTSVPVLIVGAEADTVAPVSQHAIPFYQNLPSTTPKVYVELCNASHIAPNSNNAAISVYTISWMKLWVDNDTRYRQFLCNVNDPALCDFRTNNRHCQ [LCC-ICCG DAQI]"
  Test value: 0.0923
- Monomer sequence: "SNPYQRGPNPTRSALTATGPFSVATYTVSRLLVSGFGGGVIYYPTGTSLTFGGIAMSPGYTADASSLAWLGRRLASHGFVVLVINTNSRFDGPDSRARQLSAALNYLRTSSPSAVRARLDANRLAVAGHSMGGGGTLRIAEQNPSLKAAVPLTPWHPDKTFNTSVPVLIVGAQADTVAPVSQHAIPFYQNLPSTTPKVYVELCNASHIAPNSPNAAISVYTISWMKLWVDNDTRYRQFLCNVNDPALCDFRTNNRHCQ [LCC-ICCG I6M]"
  Test value: 0.105
- Monomer sequence: "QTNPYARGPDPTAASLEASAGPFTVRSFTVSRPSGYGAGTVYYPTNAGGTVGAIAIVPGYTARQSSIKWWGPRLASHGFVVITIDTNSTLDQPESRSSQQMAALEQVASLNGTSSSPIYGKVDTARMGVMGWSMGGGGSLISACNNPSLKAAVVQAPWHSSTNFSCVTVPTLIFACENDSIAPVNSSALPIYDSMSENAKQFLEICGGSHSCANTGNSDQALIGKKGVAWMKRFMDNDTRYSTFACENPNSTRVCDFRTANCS [Z1-PETase]"
  Test value: 0

PET hydrolysis product formed for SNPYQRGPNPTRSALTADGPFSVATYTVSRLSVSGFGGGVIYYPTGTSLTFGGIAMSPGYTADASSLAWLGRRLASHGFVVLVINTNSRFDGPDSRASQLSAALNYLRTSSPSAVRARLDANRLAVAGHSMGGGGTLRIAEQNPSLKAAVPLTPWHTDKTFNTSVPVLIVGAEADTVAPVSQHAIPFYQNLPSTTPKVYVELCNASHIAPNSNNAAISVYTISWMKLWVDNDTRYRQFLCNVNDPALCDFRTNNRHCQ [LCC-ICCG] ? 0.109

PET hydrolysis product formed for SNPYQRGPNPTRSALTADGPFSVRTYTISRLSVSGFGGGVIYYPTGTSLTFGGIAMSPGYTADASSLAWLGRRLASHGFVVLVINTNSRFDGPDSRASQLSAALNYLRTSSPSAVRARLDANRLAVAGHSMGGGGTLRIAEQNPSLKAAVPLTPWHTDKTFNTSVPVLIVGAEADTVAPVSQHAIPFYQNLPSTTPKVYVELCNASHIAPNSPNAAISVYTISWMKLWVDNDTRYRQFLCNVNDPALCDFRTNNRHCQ [LCC-ICCG RIP] ? 0.103

PET hydrolysis product formed for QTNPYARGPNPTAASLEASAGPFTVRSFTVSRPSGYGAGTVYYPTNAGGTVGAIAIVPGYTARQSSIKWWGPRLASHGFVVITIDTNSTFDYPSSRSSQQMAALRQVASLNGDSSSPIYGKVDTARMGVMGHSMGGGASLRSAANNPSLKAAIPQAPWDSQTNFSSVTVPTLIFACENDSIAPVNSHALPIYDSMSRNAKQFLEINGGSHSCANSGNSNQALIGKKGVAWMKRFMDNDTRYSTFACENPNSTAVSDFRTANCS [DuraPETase] ? 0
